- system_tested: LecBPA14 (Pseudomonas aeruginosa)
- assay_comment: biochemical
- Format: binding, Pseudomonas aeruginosa UCBPP-PA14
- cond: ITC, 25° C., LecBPA14
ΔG less than -9 kcal/mol is 1; ΔG greater than or equal to -9 kcal/mol is -1.

# input Quick check: ΔG of CC1O[C@H](CNC(=O)/C=C/c2ccccc2)C(O)C(O)[C@@H]1O (stereo partly drawn) [drawing 118] under -9 kcal/mol?
# output -1

# input # check: ΔG < -9 kcal/mol for CC[C@@]1(O)C(C)OCC(O)C1O (stereo partly drawn) [drawing 116]
# output 1

# input Say whether its ΔG is strictly beneath -9 kcal/mol. Entry: CC1OCC(O)C(O)[C@@H]1O (stereo partly drawn) [drawing 115, 1-deoxy-L-fucose, reference compound]
# output -1

----------
- system_tested: LecBPA14 (Pseudomonas aeruginosa)
- assay_comment: biochemical
I'd appreciate it if you could supply Kd values for the items below.
Hi! Could you send only the number? It should be in nM, unit omitted.

# input Would you kindly share the measured Kd for CCCC[C@@]1(O)C(C)OCC(O)C1O (some centres unmarked) [drawing 117] ?
# output 246

# input Which Kd value is on record for CC1O[C@H](CNC(=O)/C=C/c2ccccc2)C(O)C(O)[C@@H]1O (some centres unmarked) [drawing 118] ?
# output 2590

# input Field request: Kd | item: Cc1cc(C)c(S(=O)(=O)NC[C@H]2OC(C)[C@@H](O)C(O)C2O)c(C)c1 (some centres unmarked) [drawing 119]
# output 310

# input Entry CC[C@@]1(O)C(C)OCC(O)C1O (some centres unmarked) [drawing 116] has what Kd?
# output 130

# input Entry under review: CC1OCC(O)C(O)[C@@H]1O (stereo partly drawn) [drawing 115, 1-deoxy-L-fucose, reference compound] . Reported Kd?
# output 453

----------
Give measured −TΔS for each item. Keep answers brief.
- system_tested: LecBPAO1 (Pseudomonas aeruginosa)
- Construct: made in house
- Sequence (Q9HYN5 entry or part of it): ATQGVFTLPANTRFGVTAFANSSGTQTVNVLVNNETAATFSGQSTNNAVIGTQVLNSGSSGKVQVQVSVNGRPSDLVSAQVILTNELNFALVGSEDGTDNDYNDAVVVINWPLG
- assay_comment: Microcalorimetric assay (ITC) for direct binding
- cond: ITC, 25° C., LecBPAO1
Answers without a unit are incomplete; give the number and then its unit.

# input Need −TΔS, item CC1O[C@H](CNS(=O)(=O)c2cccs2)C(O)C(O)[C@@H]1O (stereo partly shown)
# output 3.2 ± 0.0335 kcal/mol

# input Entry CCCC[C@@]1(O)C(C)OCC(O)C1O (stereo partly shown) [drawing 117] : reported −TΔS = ?
# output 2.51 ± 0.186 kcal/mol

# input I am curious: what −TΔS value has been reported for CC1OCC(O)C(O)[C@@H]1O (stereo partly drawn) [drawing 115, 1-deoxy-L-fucose, reference compound] ?
# output 0.327 ± 0.272 kcal/mol

# input Return reported −TΔS; argument: CC1O[C@H](CNC(=O)/C=C/c2ccccc2)C(O)C(O)[C@@H]1O (stereo partly shown) [drawing 118]
# output 0.327 ± 0.32 kcal/mol

# input What does the record list as −TΔS for CC[C@@]1(O)C(C)OCC(O)C1O (stereo partly shown) [drawing 116] ?
# output 3.2 ± 1.12 kcal/mol

# input If you can, please state the reported −TΔS value of Cc1cc(C)c(S(=O)(=O)NC[C@H]2OC(C)[C@@H](O)C(O)C2O)c(C)c1 (stereo partly shown) [drawing 119] .
# output 0.363 ± 0.0502 kcal/mol

# input Please look up its −TΔS: Cc1cc(S(=O)(=O)NC[C@H]2OC(C)[C@@H](O)C(O)C2O)c(C)s1 (stereo partly shown)
# output 3.23 ± 0.33 kcal/mol

----------
- system_tested: LecBPAO1 (Pseudomonas aeruginosa)
- Construct: made in house
- assay_comment: Microcalorimetric assay (ITC) for direct binding
- cond: ITC, 25° C., LecBPAO1
Please go through the items and note down their ΔH.
Number in kcal/mol, nothing else.

# input Reported ΔH for CC1OCC(O)C(O)[C@@H]1O (stereo partly drawn) [drawing 115, 1-deoxy-L-fucose, reference compound] : what is it?
# output -8.68

# input Dear colleague, I am looking for the recorded ΔH of the following compound: CC1O[C@H](CNC(=O)/C=C/c2ccccc2)C(O)C(O)[C@@H]1O (stereo partly shown) [drawing 118]
# output -7.86

# input Returns the measured ΔH for the input compound. Input: CC1O[C@H](CNS(=O)(=O)c2cccs2)C(O)C(O)[C@@H]1O (stereo partly shown)
# output -11.5

# input Value lookup for ΔH; key = CC[C@@]1(O)C(C)OCC(O)C1O (stereo partly shown) [drawing 116]
# output -12.4

# input For the compound Cc1cc(S(=O)(=O)NC[C@H]2OC(C)[C@@H](O)C(O)C2O)c(C)s1 (stereo partly shown) , what ΔH is on record?
# output -11.3

# input Name the recorded ΔH for CCCC[C@@]1(O)C(C)OCC(O)C1O (stereo partly shown) [drawing 117] .
# output -11.3

# input Entry Cc1cc(C)c(S(=O)(=O)NC[C@H]2OC(C)[C@@H](O)C(O)C2O)c(C)c1 (stereo partly shown) [drawing 119] : reported ΔH = ?
# output -8.41

----------
Could you please report measured −TΔS for the items listed next?
- system_tested: LecBPA14 (Pseudomonas aeruginosa, UniProt A0A0H2ZE85)
- Sequence (A0A0H2ZE85 entry or part of it): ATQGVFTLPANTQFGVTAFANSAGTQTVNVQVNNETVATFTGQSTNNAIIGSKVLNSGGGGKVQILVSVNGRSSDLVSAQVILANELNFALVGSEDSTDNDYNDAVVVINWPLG
- assay_comment: biochemical
- Format: binding, Pseudomonas aeruginosa UCBPP-PA14
- cond: ITC, 25° C., LecBPA14
Respond with the bare value in kcal/mol.

# input What value of measured −TΔS is listed for CC1O[C@H](CNC(=O)/C=C/c2ccccc2)C(O)C(O)[C@@H]1O (stereo partly shown) [drawing 118] ?
# output 0.21

# input Could you share which −TΔS value was measured for CC[C@@]1(O)C(C)OCC(O)C1O (stereo partly shown) [drawing 116] ?
# output 0.619

# input Endpoint output: −TΔS of Cc1cc(S(=O)(=O)NC[C@H]2OC(C)[C@@H](O)C(O)C2O)c(C)s1 (stereo partly shown) . Value?
# output 0.786

# input Requested field: −TΔS. Item: CCCC[C@@]1(O)C(C)OCC(O)C1O (stereo partly shown) [drawing 117]
# output 0.394

# input Entry under review: Cc1cc(C)c(S(=O)(=O)NC[C@H]2OC(C)[C@@H](O)C(O)C2O)c(C)c1 (stereo partly shown) [drawing 119] . Reported −TΔS?
# output 0.155

# input Name the reported −TΔS value associated with the compound CC1O[C@H](CNS(=O)(=O)c2cccs2)C(O)C(O)[C@@H]1O (stereo partly shown)
# output 3.04

# input Fill blank: measured −TΔS of the compound CC1OCC(O)C(O)[C@@H]1O (stereo partly drawn) [drawing 115, 1-deoxy-L-fucose, reference compound] is ____.
# output -1.1

----------
- system_tested: LecBPAO1 (Pseudomonas aeruginosa)
- assay_comment: biochemical
pIC50: −log10 of the molar value.
Could you please report measured pIC50 for the items listed next?

# input Quick one: pIC50 for CC1OCC(O)C(O)(CNS(=O)(=O)C(C)C)[C@@H]1O (stereo partly drawn) ?
# output < 3.22

# input I am curious: what pIC50 value has been reported for CC1OCC(O)C(O)(C(F)(F)F)[C@@H]1O (stereo partly drawn) ?
# output < 3.22

# input // lookup pIC50 for CC1OCC(O)C(O)(CN)[C@@H]1O (stereo partly drawn) [1-deoxy-3(S)—C-(aminomethyl)-L-fucose]
# output < 3.22

----------
Task for the reader: assign each of the following compounds its reported ΔG.
- system_tested: LecBPA14 (Pseudomonas aeruginosa)
- assay_comment: biochemical
- Assay type: binding, Pseudomonas aeruginosa UCBPP-PA14
- cond: ITC, 25° C., LecBPA14
Express the result in kcal/mol but write the number alone.

# input What does the data say about its ΔG? Entry: CC1O[C@H](CNS(=O)(=O)c2cccs2)C(O)C(O)[C@@H]1O (stereo partly drawn)
# output -8.91

# input Name the recorded ΔG for CCCC[C@@]1(O)C(C)OCC(O)C1O (stereo partly drawn) [drawing 117] .
# output -9.01

# input Consider the compound shown here: Cc1cc(C)c(S(=O)(=O)NC[C@H]2OC(C)[C@@H](O)C(O)C2O)c(C)c1 (stereo partly drawn) [drawing 119] What is its recorded ΔG?
# output -8.87

Origin of values: patent US10407398B2
